Biological target: Retinoic acid receptor alpha (Homo sapiens) (UniProt P10276)
Sequence (P10276 whole entry, looked up): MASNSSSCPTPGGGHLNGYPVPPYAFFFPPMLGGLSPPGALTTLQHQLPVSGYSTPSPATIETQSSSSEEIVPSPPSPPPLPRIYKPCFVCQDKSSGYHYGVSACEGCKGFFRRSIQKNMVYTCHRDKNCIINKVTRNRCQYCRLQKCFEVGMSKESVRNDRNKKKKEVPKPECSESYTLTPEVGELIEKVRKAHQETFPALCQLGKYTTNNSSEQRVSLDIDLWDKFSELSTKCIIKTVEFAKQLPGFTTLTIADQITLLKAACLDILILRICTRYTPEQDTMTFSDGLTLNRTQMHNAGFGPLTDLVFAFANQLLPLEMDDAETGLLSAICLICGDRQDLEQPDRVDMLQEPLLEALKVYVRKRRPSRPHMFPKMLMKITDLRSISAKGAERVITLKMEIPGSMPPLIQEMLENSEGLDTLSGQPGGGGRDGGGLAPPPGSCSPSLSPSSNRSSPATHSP
Assay: ATG_DR5_RAR_CIS: Attagene CIS-FACTORIAL HepG2 Assay for human Retinoic Acid Receptor Alpha (RARE), DR5 submotif (AID 2282934)
Conditions: HepG2 Attagene cis-factorial RARE DR5 reporter, mRNA; actives raise or lower the signal
Active and inactive are the calls of the source. Rule for the calls: active = hit-call score of the fitted dose curve at least 0.9, where 1 is the maximum; inactive = score below 0.9.
Can you answer with just one of these options? 1 = active, -1 = inactive

IN: Recorded call for CC1=CC(C)C(C=O)CC1 (configuration not stated) ?
OUT: -1

IN: Param item: C1CNCCN1
OUT: -1

IN: Param item: C=C(C)C(=O)OCCOC(=O)C(=C)C
OUT: -1

IN: Param item: C=C(C)C(=O)OCCCCCCCCCCCC
OUT: -1

IN: Param item: C=CC(=O)OCCCCCCOC(=O)C=C
OUT: -1

IN: Param item: CCCCCCCCCCCCC
OUT: -1

IN: Param item: CCCCC1C(=O)N(c2ccccc2)N(c2ccccc2)C1=O
OUT: -1

IN: Param item: O=C(O)CC(C(=O)O)S(=O)(=O)O (configuration not stated)
OUT: -1

IN: Param item: CCCCCCCCCC(C)=O
OUT: -1

IN: Param item: COCC(=O)O
OUT: -1

IN: Param item: CCCC(CC)c1ccccc1 (configuration not stated)
OUT: -1

IN: Param item: c1ccc(Nc2cccc3ccccc23)cc1
OUT: 1

Values compiled from PubChem BioAssay (EPA / NIEHS).
